Origin of the recorded values: patent US20210220408A1

Catalogue of IC50 values
tested_system: UniProt:P35869
procedure_summary: DRE-Luciferase reporter high-throughput screen (AHR antagonist, VAF347-activated)

# count of solved cases: 5
> print(dat)
                                   compound  endpoint.result
1  O=C(c1csc(-c2ccsc2)n1)N1CCCc2cc(C(F)(F)F)ccc21 [37B]    200 to 500 nM
2  Cn1c(N)c(-c2csc(-c3cccc(Cl)c3)n2)c(=O)n(C)c1=O [36B]  1000 to 2000 nM
3  CSc1nc(-c2ccccc2)nc2[nH]c(-c3ccccc3)cc(=O)c12 [166A]  1000 to 2000 nM
4          Cn1nc(C2CC2)cc1C(=O)Nc1ccc(I)cc1   500 to 1000 nM
5  COc1ccc(Nc2cc(C)nc(-c3ccccc3O)n2)cc1 [47B]  1000 to 2000 nM

Record O=C(Nc1cccc(F)c1)Nc1ccc2c(c1)C(=O)OC2 [96B] , field IC50: > 2000 nM

Record "CCCOc1ccc(-c2csc(N3CCCC3=O)n2)cc1" , field IC50: 500 to 1000 nM

Record "CCOC(=O)c1sc(NC(=O)c2ccc3ncsc3c2)cc1C" , field IC50: 500 to 1000 nM

Record Cc1ccccc1NC(=O)c1cc(-c2cnc(-c3ccccc3)nc2)cn1C [12B] , field IC50: 1000 to 2000 nM

Record "COC(=O)c1sc(NC(=O)c2cc(C)n(C)n2)cc1C" , field IC50: < 200 nM

Record "Cn1nc(C(C)(C)C)cc1-c1nn2c(-c3cccs3)nnc2s1" , field IC50: 500 to 1000 nM

Record "O=C(Nc1ccc(N2CCCC2)nc1)c1cc2c(F)cccc2s1" , field IC50: 200 to 500 nM

Record "CSc1ccccc1NC(=O)c1ccc(-c2ccccc2)cc1" , field IC50: > 2000 nM

Record CN(c1nnc(NC(=O)Nc2ccccc2C(F)(F)F)s1)C1CCCCC1 [145A] , field IC50: 1000 to 2000 nM

----------
tested_system: aryl hydrocarbon receptor (AHR) (Homo sapiens, UniProt P35869)
Sequence (P35869 11-848): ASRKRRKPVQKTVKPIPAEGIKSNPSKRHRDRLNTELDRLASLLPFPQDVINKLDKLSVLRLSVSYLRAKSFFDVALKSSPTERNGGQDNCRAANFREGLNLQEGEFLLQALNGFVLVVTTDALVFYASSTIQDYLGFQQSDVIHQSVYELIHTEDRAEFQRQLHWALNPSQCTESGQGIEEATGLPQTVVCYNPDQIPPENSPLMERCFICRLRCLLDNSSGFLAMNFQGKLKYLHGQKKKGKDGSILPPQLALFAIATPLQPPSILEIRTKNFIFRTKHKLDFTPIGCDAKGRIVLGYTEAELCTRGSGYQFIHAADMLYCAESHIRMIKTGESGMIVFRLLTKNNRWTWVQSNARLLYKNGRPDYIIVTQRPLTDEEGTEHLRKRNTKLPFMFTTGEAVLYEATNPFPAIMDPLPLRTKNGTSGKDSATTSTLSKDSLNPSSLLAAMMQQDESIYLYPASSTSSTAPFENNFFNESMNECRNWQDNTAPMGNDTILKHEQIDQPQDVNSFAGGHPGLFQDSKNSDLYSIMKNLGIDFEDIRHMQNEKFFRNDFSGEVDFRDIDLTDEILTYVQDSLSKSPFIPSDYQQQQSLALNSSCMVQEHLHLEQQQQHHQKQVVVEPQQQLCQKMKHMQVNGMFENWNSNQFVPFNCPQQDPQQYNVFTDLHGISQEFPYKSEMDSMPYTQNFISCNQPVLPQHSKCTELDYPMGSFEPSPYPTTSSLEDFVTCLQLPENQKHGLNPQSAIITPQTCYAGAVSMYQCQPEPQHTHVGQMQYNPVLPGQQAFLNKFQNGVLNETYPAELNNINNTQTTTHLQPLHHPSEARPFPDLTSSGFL
procedure_summary: DRE-Luciferase reporter high-throughput screen (AHR antagonist, VAF347-activated)
pIC50: −log10 of the molar value.
Catalogue of pIC50 values

# count of solved cases: 8
> print(dat)
                                   compound                             tested.system  quantity.name  endpoint.result
1  CC(=O)N(CCn1nc(C)cc1C)c1nc2c(F)cc(F)cc2s1 [compound 93]  aryl hydrocarbon receptor (AHR) (Homo sapiens, UniProt P35869)          pIC50     6.30 to 6.70
2  COc1cccc(C(=O)Nc2cnc(-c3ccccc3)nc2)c1 [16A]  aryl hydrocarbon receptor (AHR) (Homo sapiens, UniProt P35869)          pIC50     5.70 to 6.00
3  Cc1ccc(C)c(NC(=O)c2nc3c(s2)CCCN3c2ccc(C)nn2)c1 [compound 29]  aryl hydrocarbon receptor (AHR) (Homo sapiens, UniProt P35869)          pIC50     6.00 to 6.30
4     c1ccc(-c2ccc(OCc3ccno3)cc2)cc1 [130A]  aryl hydrocarbon receptor (AHR) (Homo sapiens, UniProt P35869)          pIC50     5.70 to 6.00
5  CCn1cnc(-c2nc(C(=O)Nc3cccc(F)c3)c3ccccn23)c1 [48A]  aryl hydrocarbon receptor (AHR) (Homo sapiens, UniProt P35869)          pIC50           < 5.70
6  Cc1cc(Oc2ncccc2C#N)ccc1NC(=O)c1oc(Br)cc1C [compound 26]  aryl hydrocarbon receptor (AHR) (Homo sapiens, UniProt P35869)          pIC50     6.30 to 6.70
7       N#Cc1ccc(OCc2ccc3nonc3c2)cc1 [174A]  aryl hydrocarbon receptor (AHR) (Homo sapiens, UniProt P35869)          pIC50           < 5.70
8  C(#Cc1ccc(-c2ccn[nH]2)cc1)c1ccccc1 [103A]  aryl hydrocarbon receptor (AHR) (Homo sapiens, UniProt P35869)          pIC50     5.70 to 6.00

Would you kindly look at the next entry?
Record COc1ccc2c(c1)-c1cccc([N+](=O)[O-])c1CC2C#N (stereo not drawn) [compound 152] , field pIC50: 6.00 to 6.30
